Kindly supply the reported binding signal values for the records listed here.
Target: OsWRKY34 (Oryza sativa, UniProt Q0JBA9 1-250)
Sequence (Q0JBA9 entry or part of it): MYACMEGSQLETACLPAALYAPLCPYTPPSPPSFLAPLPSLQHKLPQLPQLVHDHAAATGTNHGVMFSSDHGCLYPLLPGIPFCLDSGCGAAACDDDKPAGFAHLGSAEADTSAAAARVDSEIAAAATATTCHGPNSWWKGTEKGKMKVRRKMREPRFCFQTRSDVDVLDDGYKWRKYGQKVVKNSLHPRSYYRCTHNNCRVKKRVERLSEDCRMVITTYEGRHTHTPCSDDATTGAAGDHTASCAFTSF
Assay: protein-binding microarray (RPBM); PBS, 2% BSA, 51.3 ng/ul salmon testes DNA, 50 uM zinc acetate, 200 nM TF, 25 C, 1 h; high values mean tight binding
Settings: protein: recombinant; tags: N-terminal polyhistidine and DsRed monomer fusion (pET32a); label: CyDye5-dUTP incorporated in the synthesized complementary strand; 3' TTTTT single-stranded linker to array surface; dsDNA, one strand shown
The full ranking holds about 68,000 sequences; the median of “fluorescence intensity (a.u.)” is about 9,100, and the highest 2% start at about 16,000. The full list was thinned out, with the highest values kept by preference.

# monomer_sequence, binding signal
data = [
    ("TTAGGTGTTTTGTAGTAGTGTAATGGGGCATATTCGTGGGCGGAGTCACCTAGTGCAG", "8270 fluorescence intensity (a.u.)"),
    ("GCTCTTATCCCGAGCTCGTGTCACTGGTGGGGTGGGGCCCCGGAGTCACCTAGTGCAG", "16600 fluorescence intensity (a.u.)"),
]

Need binding signal for each of these sequences.
1. CCCACGTATTCCCCACCTTATCTCACTGTCTCGTGGGCCCCGGAGTCACCTAGTGCAG
2. ATGGGGTGTTTTTTTTTTCGCTATATTCTCTTAGAACTGTCGGAGTCACCTAGTGCAG
3. AAGTGTTTTCGTTTTTTTTTCATTCGCTATTATTTTCTTTCGGAGTCACCTAGTGCAG

### Response
10500 fluorescence intensity (a.u.)
18000 fluorescence intensity (a.u.)
9660 fluorescence intensity (a.u.)
